Test system: Plasmodium falciparum
Test Method Notes: NOVARTIS: Inhibition of Plasmodium falciparum 3D7 (drug-susceptible) proliferation in erythrocyte-based infection assay
Type: functional, organism-based
Test Conditions: Plasmodium falciparum, 3D7
Measure Name: pEC50
On this scale, pEC50 is minus log10 of a concentration expressed in M (mol/L).

COc1ccc(CCN2C(=O)N(CCN(C)C)C(=O)C23CCN(Cc2ccc(O)cc2)CC3)cc1 : 6.66

Looking up Cc1cc(N2CCN(C3CCCC3)CC2)n2c(nc3ccccc32)c1C#N , I found its pEC50 recorded as 6.13

Looking up CN1/C(=C/c2cccc[n+]2C)C=Cc2ccccc21 , I found its pEC50 recorded as 6.35

Looking up COc1cccc2c1C(=O)c1c(O)c3c(c(O)c1C2=O)C[C@@](O)(C(=O)CO)C[C@@H]3O[C@@H]1C[C@H](N)[C@H](O)[C@H](C)O1 , I found its pEC50 recorded as 7.31

* * *

Tested on: Plasmodium falciparum
Test Method Notes: NOVARTIS: Inhibition of Plasmodium falciparum W2 (drug-resistant) proliferation in erythrocyte-based infection assay
Format: functional, organism-based
Test Conditions: Plasmodium falciparum, W2; read-out: EC50
// pEC50 lookup, one value per entry
On this scale, pEC50 is minus log10 of a concentration expressed in M (mol/L).

O=C(NN=Cc1c(O)ccc2ccccc12)c1cccnc1 : 6.43
S=C(Nc1ccccc1)N1CCCN(c2nc3ccc(Cl)cc3s2)CC1 : 6.43

Looking up COc1cccc(-c2ccc(O)c(CN(C)C3CCCCC3)c2)n1 , I found its pEC50 recorded as 7.04

Looking up CCCC(=O)N(C/C=C/c1ccccc1OC)CCN1CCN(C(=O)Nc2cccc(C)c2)CC1 , I found its pEC50 recorded as 6.83

Looking up Cc1cc(C)cc(C(=O)Nc2c3c(nn2-c2cccc(C)c2C)CS(=O)(=O)C3)c1 , I found its pEC50 recorded as 6.45

Looking up COc1ccc(C2CC(=O)C3=C(C2)NC(C)=C(C(=O)OC2CCCC2)C3c2ccc(Cl)cc2)cc1 (stereo not given) , I found its pEC50 recorded as 6.90

Looking up COC1=CC(=O)c2c(ccc3cc(O)ccc23)C1=O , I found its pEC50 recorded as 6.67

Looking up CCCCCCN(C(=O)c1ccc2ccccc2c1)C(CC)c1nc2ccccc2c(=O)n1-c1ccc(F)cc1 (stereo not given) , I found its pEC50 recorded as 6.26

Looking up COC(=O)c1ccc(Nc2nc(NCc3ccco3)c3ccccc3n2)cc1 , I found its pEC50 recorded as 6.36

* * *

Test Method Notes: NOVARTIS: Cytotoxicity against human hepatocellular carcinoma cell line (Huh7)
Format: toxicity, cell-based, Huh-7
Test Conditions: Huh7 cells (hepatocellular carcinoma cell line)
// CC50 lookup, one value per entry

N#Cc1c(N)nc(SCC(=O)c2ccc(Br)cc2)c(C#N)c1-c1ccccc1 : > 56.6 µM
Cc1cc(N2CCN(C)CC2)nc2ccc(NC(=O)/C=C/c3ccc4c(c3)OCO4)cc12 : > 10 µM
CCOC(=O)c1c(NC(=O)CSc2nc3c(c(=O)n(C)c(=O)n3C)n2C(C)C)sc2c1CCCC2 : > 10 µM
OC(COc1ccc(OCC(O)CN2CCN(CCOc3ccccc3)CC2)cc1)CN1CCN(CCOc2ccccc2)CC1 (stereo not given) : > 100 µM

Shift focus to the following entry.
Looking up CCCCCCC(=O)NC1CCC(Nc2ccnc3cc(Cl)ccc23)CC1 (stereo not given) , I found its CC50 recorded as > 10 µM

* * *

Tested on: Plasmodium falciparum
Test Method Notes: NOVARTIS: Inhibition of Plasmodium falciparum 3D7 (drug-susceptible) proliferation in erythrocyte-based infection assay
Type: functional, organism-based
Test Conditions: Plasmodium falciparum, 3D7
// log10(EC50) lookup, one value per entry
Values are log10 of EC50 in nM.

These recorded examples may help you get a feel for the data.
O=C(Cc1cccs1)N1CCN(c2ccccn2)CC1 : 3.60
OC1=C2C(=Nc3ccccc3SC2c2ccccc2)c2ccccc21 (stereo not drawn) : 1.67
COC(=O)c1ccc(C2C3=C(O)CC(c4ccc(F)cc4)CC3=Nc3ccccc3N2C(=O)c2ccccc2)cc1 (stereo not drawn) : 2.52
CC(=O)Oc1ccccc1-c1nc2cc(C)ccn2c1NC(C)(C)CC(C)(C)C : 2.59

The molecule CCOc1ccc(-c2cn3c([n+]2Cc2ccccc2)SCCC3)cc1 , tested on Plasmodium falciparum, showed log10(EC50) of 2.81

The molecule O=C(Cc1ccccc1)NCCCCNc1ccnc2cc(Cl)ccc12 , tested on Plasmodium falciparum, showed log10(EC50) of 2.52

The molecule Cc1ccc(Nc2cc(C)nc(NCc3ccccc3)n2)cc1 , tested on Plasmodium falciparum, showed log10(EC50) of 2.05

The molecule O=C(c1ccc2nc(N3CCCCC3)sc2c1)N1CCN(Cc2ccccc2)CC1 , tested on Plasmodium falciparum, showed log10(EC50) of 2.96

The molecule Oc1ccc(-c2cncc(NCc3ccc4c(c3)OCO4)c2)cc1 , tested on Plasmodium falciparum, showed log10(EC50) of 3.07

The molecule N#Cc1c2c(c(N3CCN(CCO)CC3)n3c1nc1ccccc13)CCC2 , tested on Plasmodium falciparum, showed log10(EC50) of 2.32

The molecule Cn1nc(C(F)(F)F)c(C(=O)Nc2ccc(Cl)cc2)c1Sc1ccc(Cl)cc1 , tested on Plasmodium falciparum, showed log10(EC50) of 2.87

The molecule Cc1ccc2ccc3ccc(C)nc3c2n1 , tested on Plasmodium falciparum, showed log10(EC50) of 1.99

The molecule COC(=O)c1c(S(=O)(=O)NCCc2ccccc2)sc2c1CCN(Cc1cccnc1)C2 , tested on Plasmodium falciparum, showed log10(EC50) of 3.20

The molecule CCOC(=O)C1=C(C)NC2=C(C(=O)CC(c3ccc(OC)cc3)C2)C1c1ccccc1F (stereo not drawn) , tested on Plasmodium falciparum, showed log10(EC50) of 1.87

* * *

Test Method Notes: NOVARTIS: Cytotoxicity against human hepatocellular carcinoma cell line (Huh7)
Assay type: toxicity, cell-based, Huh-7
Test Conditions: Huh7 cells (hepatocellular carcinoma cell line)
// CC50 lookup, one value per entry

Oc1ccccc1Nc1nc(NC2CCCC2)c2ccccc2n1 : 16.7 µM
C[n+]1c(C=Cc2ccc(Cl)c(Cl)c2)ccc2ccccc21 : 5.37 µM
CC(C)CNc1nc(NCCN2CCCCC2)ncc1C(=O)NCc1ccccc1 : > 10 µM

Looking up O=C(NC(C(=O)c1ccccc1)N1CCCCC1)c1ccco1 (stereo not given) , I found its CC50 recorded as > 10 µM

Looking up CCc1cc2c(Nc3ccncc3)ncnc2s1 , I found its CC50 recorded as > 100 µM

* * *

Test system: Plasmodium falciparum
Test Method Notes: NOVARTIS: Inhibition of Plasmodium falciparum 3D7 (drug-susceptible) proliferation in erythrocyte-based infection assay
Assay type: functional, organism-based
Test Conditions: Plasmodium falciparum, 3D7
// pEC50 lookup, one value per entry
On this scale, pEC50 is minus log10 of a concentration expressed in M (mol/L).

These recorded examples may help you get a feel for the data.
CCOC(=O)C1=C(C)NC2=C(C(=O)C(C(=O)OCC)C(c3ccccc3OC)C2)C1c1cccs1 (stereo not given) : 5.74
C=C[C@H]1CN2CC[C@H]1C[C@@H]2[C@@H](OC(=O)c1ccc(OC)cc1)c1ccnc2ccccc12 : 6.61

Looking up O=[N+]([O-])c1ccc(-c2ccc(C=NNc3ccccn3)o2)cc1 , I found its pEC50 recorded as 5.61

* * *

// CC50 lookup, one value per entry
Test Method Notes: NOVARTIS: Cytotoxicity against human hepatocellular carcinoma cell line (Huh7)
Type: toxicity, cell-based, Huh-7
Test Conditions: Huh7 cells (hepatocellular carcinoma cell line)

Looking up Cc1cccc(-n2c(CNC(=O)c3ccc(S(=O)(=O)N4CCCCC4)cc3)nnc2SCC(=O)Nc2nccs2)c1 , I found its CC50 recorded as 67.1 µM

Looking up O=C(Nc1ccc2c3c(cccc13)CC2)c1cccc2ccccc12 , I found its CC50 recorded as > 10 µM

Looking up COc1ccc(-c2ccc3c(N)c(C(=O)NCCc4ccccc4)sc3n2)cc1OC , I found its CC50 recorded as > 100 µM

Looking up CC1=C(CO)C(=O)O[C@@H]([C@@H](C)[C@H]2CC[C@H]3[C@@H]4C[C@H]5O[C@]56[C@@H](O)C=CC(=O)[C@]6(C)C4CC[C@]23C)C1 (stereo not given in full) , I found its CC50 recorded as 3.63 µM

Looking up COc1ccc(N(CC(=O)NCCc2ccc(F)cc2)S(=O)(=O)c2ccccc2)cc1 , I found its CC50 recorded as > 100 µM

Looking up CCOc1ccc(-n2nc(C(=O)NCCCN(C)Cc3ccccc3)c3ccccc3c2=O)cc1 , I found its CC50 recorded as > 100 µM

Looking up Cc1nnc2sc(SCc3cccc([N+](=O)[O-])c3)nn2c1=O , I found its CC50 recorded as > 13.9 µM

Looking up Clc1ccccc1-c1nc([P+](c2ccccc2)(c2ccccc2)c2ccccc2)c(N2CCOCC2)o1 , I found its CC50 recorded as 10.1 µM

Looking up O=C1C(NC2CCCCC2)=C(N2CCOCC2)C(=O)c2ccccc21 , I found its CC50 recorded as 46.1 µM
